Test system: ATP;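 note: ATP exposure 15 min at 22 °C before imaging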
Assay: switch fluorescence ratio, 500 uM ATP over buffer (Cy3 cluster intensity, sum of 5 cycles each) (fold (ratio)); higher = stronger signal-on switching upon ATP binding; sequences stand for … in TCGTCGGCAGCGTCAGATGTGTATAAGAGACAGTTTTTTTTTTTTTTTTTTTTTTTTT…TC
Conditions: aptamer strand: ATP DNA aptamer (quencher-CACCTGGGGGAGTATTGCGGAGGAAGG + anchor), 100 nM annealed; ATP concentration: 500 uM
Quick rule for you: switch fluorescence ratio at 1 or higher means class 1, lower means class 0.

[[record]]
chain_sequence = "TTTCGGGGAA"
cat = "class 1"

[[record]]
chain_sequence = "GACCAATATT"
cat = "class 1"


[in] Test whether the sequence "CAGTCGTGGA" records switch fluorescence ratio of 1 or higher.
[out] class 0

[in] Test whether the sequence "GAAGTATGCA" records switch fluorescence ratio of 1 or higher.
[out] class 1

[in] Test whether the sequence "CGTAATCATC" records switch fluorescence ratio of 1 or higher.
[out] class 1

[in] Test whether the sequence "GGTAGGGATG" records switch fluorescence ratio of 1 or higher.
[out] class 0

[in] Test whether the sequence "TTTTCGGGTG" records switch fluorescence ratio of 1 or higher.
[out] class 1

* * *

System: ATP;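 note: ATP exposure 15 min at 22 °C before imaging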
Experiment: switch fluorescence ratio, 500 uM ATP over buffer (Cy3 cluster intensity, sum of 5 cycles each) (fold (ratio)); higher = stronger signal-on switching upon ATP binding; sequences stand for … in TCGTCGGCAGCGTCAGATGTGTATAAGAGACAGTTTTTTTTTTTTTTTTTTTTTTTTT…TC
Conditions: aptamer strand: ATP DNA aptamer (quencher-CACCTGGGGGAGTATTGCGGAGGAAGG + anchor), 100 nM annealed; ATP concentration: 500 uM
# maps each entry to its switch fluorescence ratio
Note: the reply should be a number with no unit written.

Below, each entry is followed by its recorded switch fluorescence ratio result.
[[record]]
chain_sequence = "TTGTTCCAGC"
numeric_value = 0.985

[[record]]
chain_sequence = "AGGGATAGAT"
numeric_value = 0.99

[[record]]
chain_sequence = "GACGGAAGAA"
numeric_value = 1.74


[in] Name the reported switch fluorescence ratio value associated with the sequence "CACTTTCGT"
[out] 0.959

[in] Name the reported switch fluorescence ratio value associated with the sequence "CGTTCCCCCA"
[out] 1.35

[in] Name the reported switch fluorescence ratio value associated with the sequence "ATGATTGGA"
[out] 0.992

[in] Name the reported switch fluorescence ratio value associated with the sequence "CGGAATGATA"
[out] 1

[in] Name the reported switch fluorescence ratio value associated with the sequence "GGCTTAGTTT"
[out] 1.01

* * *

System: ATP;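 note: ATP exposure 15 min at 22 °C before imaging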
Test: switch fluorescence ratio, 500 uM ATP over buffer (Cy3 cluster intensity, sum of 5 cycles each) (fold (ratio)); higher = stronger signal-on switching upon ATP binding; sequences stand for … in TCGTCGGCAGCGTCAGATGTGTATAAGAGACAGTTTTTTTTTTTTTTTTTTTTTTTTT…TC
Conditions: aptamer strand: ATP DNA aptamer (quencher-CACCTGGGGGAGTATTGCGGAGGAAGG + anchor), 100 nM annealed; ATP concentration: 500 uM
# maps each entry to its switch fluorescence ratio
Note: the reply should be a number with no unit written.

Below, each entry is followed by its recorded switch fluorescence ratio result.
[[record]]
chain_sequence = "TGTTCAGACG"
tested_target = "ATP"
numeric_value = 1.03

[[record]]
chain_sequence = "GTATAAACCC"
tested_target = "ATP"
numeric_value = 1.03

[[record]]
chain_sequence = "ATGATTATGG"
tested_target = "ATP"
numeric_value = 1.02

[[record]]
chain_sequence = "CCACACGTTT"
tested_target = "ATP"
numeric_value = 1.13

[[record]]
chain_sequence = "AGCTGCGACG"
tested_target = "ATP"
numeric_value = 0.992

[[record]]
chain_sequence = "ATGTTGGGTT"
tested_target = "ATP"
numeric_value = 0.982

[[record]]
chain_sequence = "ATGTTGTCTG"
tested_target = "ATP"
numeric_value = 1

[[record]]
chain_sequence = "GCCGGATCTT"
tested_target = "ATP"
numeric_value = 1.01


[in] Name the reported switch fluorescence ratio value associated with the sequence "GGCCGTGAGT"
[out] 0.996

[in] Name the reported switch fluorescence ratio value associated with the sequence "GGGGTGGGAT"
[out] 0.998

* * *

# maps each entry to its switch fluorescence ratio
Tested on: ATP;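 note: ATP exposure 15 min at 22 °C before imaging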
Assay: switch fluorescence ratio, 500 uM ATP over buffer (Cy3 cluster intensity, sum of 5 cycles each) (fold (ratio)); higher = stronger signal-on switching upon ATP binding; sequences stand for … in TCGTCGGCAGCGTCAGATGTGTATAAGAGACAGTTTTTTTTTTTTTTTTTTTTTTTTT…TC
Details: aptamer strand: ATP DNA aptamer (quencher-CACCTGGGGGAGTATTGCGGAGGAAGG + anchor), 100 nM annealed; ATP concentration: 500 uM
Note: the reply should be a number with no unit written.

[[record]]
chain_sequence = "CTCTATAACT"
reported_property = "switch fluorescence ratio"
numeric_value = 1.01

[[record]]
chain_sequence = "TATGGAGGAG"
reported_property = "switch fluorescence ratio"
numeric_value = 0.981

[[record]]
chain_sequence = "CACCCGGGCA"
reported_property = "switch fluorescence ratio"
numeric_value = 1.07

[[record]]
chain_sequence = "TTGAGCTTGT"
reported_property = "switch fluorescence ratio"
numeric_value = 1.02

[[record]]
chain_sequence = "GGGGCGGTGT"
reported_property = "switch fluorescence ratio"
numeric_value = 1.32

[[record]]
chain_sequence = "GGTGACAGGC"
reported_property = "switch fluorescence ratio"
numeric_value = 1.04

[[record]]
chain_sequence = "AATATCCTAT"
reported_property = "switch fluorescence ratio"
numeric_value = 1.01

[[record]]
chain_sequence = "TGGTGGGGCT"
reported_property = "switch fluorescence ratio"
numeric_value = 0.994

[[record]]
chain_sequence = "TACATGGGCA"
reported_property = "switch fluorescence ratio"
numeric_value = 1.01

[[record]]
chain_sequence = "TTTATCGCAG"
reported_property = "switch fluorescence ratio"
numeric_value = 0.994


[in] Name the reported switch fluorescence ratio value associated with the sequence "CGGATGTATA"
[out] 0.988

[in] Name the reported switch fluorescence ratio value associated with the sequence "TTTTTAATGA"
[out] 1.02

[in] Name the reported switch fluorescence ratio value associated with the sequence "TCTAAGACGT"
[out] 0.957

[in] Name the reported switch fluorescence ratio value associated with the sequence "TTAATCTGGG"
[out] 0.992

[in] Name the reported switch fluorescence ratio value associated with the sequence "GAGCGGTTTG"
[out] 0.998

[in] Name the reported switch fluorescence ratio value associated with the sequence "CTGCACGGAG"
[out] 1.01

[in] Name the reported switch fluorescence ratio value associated with the sequence "ACTGTTTTCG"
[out] 1.02

[in] Name the reported switch fluorescence ratio value associated with the sequence "ATAGTAAAGG"
[out] 0.994

[in] Name the reported switch fluorescence ratio value associated with the sequence "CATTCTACTG"
[out] 1.04

[in] Name the reported switch fluorescence ratio value associated with the sequence "GCCATAGGAG"
[out] 0.987

[in] Name the reported switch fluorescence ratio value associated with the sequence "GACTATTAGG"
[out] 0.989

[in] Name the reported switch fluorescence ratio value associated with the sequence "TTCTCGGGCT"
[out] 0.994

[in] Name the reported switch fluorescence ratio value associated with the sequence "CCAGGCGGGG"
[out] 0.997

[in] Name the reported switch fluorescence ratio value associated with the sequence "ATGTTAGCGT"
[out] 0.994

[in] Name the reported switch fluorescence ratio value associated with the sequence "TATCCTGTTT"
[out] 1.04

[in] Name the reported switch fluorescence ratio value associated with the sequence "TGTTATGAGT"
[out] 0.99

[in] Name the reported switch fluorescence ratio value associated with the sequence "TGTGAGAGGG"
[out] 1

[in] Name the reported switch fluorescence ratio value associated with the sequence "TTGTCCCTTT"
[out] 0.985

[in] Name the reported switch fluorescence ratio value associated with the sequence "CTATTAATGT"
[out] 0.989

[in] Name the reported switch fluorescence ratio value associated with the sequence "TCTTATGGAA"
[out] 1.04

[in] Name the reported switch fluorescence ratio value associated with the sequence "CGTATTTAGA"
[out] 0.99

* * *

Test system: ATP;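 note: ATP exposure 15 min at 22 °C before imaging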
Assay: switch fluorescence ratio, 500 uM ATP over buffer (Cy3 cluster intensity, sum of 5 cycles each) (fold (ratio)); higher = stronger signal-on switching upon ATP binding; sequences stand for … in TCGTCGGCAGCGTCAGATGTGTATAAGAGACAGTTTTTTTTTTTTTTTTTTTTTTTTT…TC
Details: aptamer strand: ATP DNA aptamer (quencher-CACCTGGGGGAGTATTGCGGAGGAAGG + anchor), 100 nM annealed; ATP concentration: 500 uM
REPORTED PROPERTY: switch fluorescence ratio
Note: the reply should be a number with no unit written.

Below, each entry is followed by its recorded switch fluorescence ratio result.
[[record]]
chain_sequence = "TAAGTGGTTG"
tested_target = "ATP"
numeric_value = 0.989

[[record]]
chain_sequence = "GAATGTATGA"
tested_target = "ATP"
numeric_value = 0.99

[[record]]
chain_sequence = "TCTTGGGGGA"
tested_target = "ATP"
numeric_value = 0.996

[[record]]
chain_sequence = "GATGCAGCGA"
tested_target = "ATP"
numeric_value = 1.11

[[record]]
chain_sequence = "TCGGTTAAGT"
tested_target = "ATP"
numeric_value = 1.02

[[record]]
chain_sequence = "TTTTGTCATT"
tested_target = "ATP"
numeric_value = 1


[in] Name the reported switch fluorescence ratio value associated with the sequence "AAATCTCTTT"
[out] 1

[in] Name the reported switch fluorescence ratio value associated with the sequence "TAGGATGAGT"
[out] 1

[in] Name the reported switch fluorescence ratio value associated with the sequence "CGCGGGATGT"
[out] 1.02

[in] Name the reported switch fluorescence ratio value associated with the sequence "GTTTTGTCAA"
[out] 1.02

[in] Name the reported switch fluorescence ratio value associated with the sequence "AATGAATCGT"
[out] 1

[in] Name the reported switch fluorescence ratio value associated with the sequence "TATGATTGGG"
[out] 1.01

[in] Name the reported switch fluorescence ratio value associated with the sequence "GCAGGGGATT"
[out] 1.01

[in] Name the reported switch fluorescence ratio value associated with the sequence "TAGGAAAGGG"
[out] 0.997

[in] Name the reported switch fluorescence ratio value associated with the sequence "GGATTGTCTT"
[out] 1

[in] Name the reported switch fluorescence ratio value associated with the sequence "GGACTGGCTA"
[out] 1.02

[in] Name the reported switch fluorescence ratio value associated with the sequence "ACTCTTGTTG"
[out] 1.01

[in] Name the reported switch fluorescence ratio value associated with the sequence "TTTTGGTGGA"
[out] 0.988

[in] Name the reported switch fluorescence ratio value associated with the sequence "AACTGACGGA"
[out] 1.14

[in] Name the reported switch fluorescence ratio value associated with the sequence "GAATACCTTT"
[out] 1.02
